Let's look at some molecules and their measured inhibition.
Target: Programmed cell death protein 1/Programmed cell death 1 ligand 1 (Homo sapiens, UniProt Q15116+Q9NZQ7)
Assay: Inhibition of recombinant human PD-1/PD-L1 interaction relative to control
Assay type: protein-complex assay
Conditions: concentration not given here
Observation type: inhibition (%)

> print(dat)
               structure.smiles.string  data.value
1  CCCCN(CCCC)CCOc1cccc(OC(=O)N(C)C)c1        41.9
2      Cc1nnc(NS(=O)(=O)c2ccc(N)cc2)s1        29.3
3           CNCCOc1cccc(OC(=O)N(C)C)c1        18.5
4    COc1cc(NS(=O)(=O)c2ccc(N)cc2)ncn1        10.2
